pIC50 values, listed per item
Test system: Vero cells
test_method_notes: Cytotoxicity to Vero cells, green fluorescent protein detection method
Format: cell-based, African green monkey
measurement_context: Chlorocebus sabaeus; nonmalignant Vero cells
pIC50: −log10 of the molar value.

compound	pIC50
CC(C)=CCC/C(C)=C/CC/C(=C/Cc1cc(O)ccc1OC(C)(C)[C@@H](O)CC[C@@H](C)[C@H]1CC[C@@]2(C)C3=CC[C@H]4C(C)(C)[C@@H](O)CC[C@]4(C)C3=CC[C@]12C)C(=O)O [ganohochimin B (2), Ganohochimin B]	4.55
CC(C)=CCCC(C)=CCCC(=CCc1cc(O)ccc1OC(C)(C)C(O)CCC(C)C1CCC2(C)C3=CCC4C(C)(C)C(=O)CCC4(C)C3=CCC12C)C(=O)O (centres unmarked) [ganohochimin A (1), Ganohochimin A]	4.77

###

System: Vero cells
test_method_notes: Cytotoxicity to Vero cells, green fluorescent protein detection method
Assay type: cell-based, African green monkey
measurement_context: Chlorocebus sabaeus; nonmalignant Vero cells
pIC50: −log10 of the molar value.

compound	value_comparator	pIC50
CC(C)=CCC/C(C)=C/CC/C(=C/Cc1cc(OC(C)(C)[C@@H](O)CC[C@@H](C)[C@H]2CC[C@@]3(C)C4=CC[C@H]5C(C)(C)C(=O)CC[C@]5(C)C4=CC[C@]23C)ccc1O)C(=O)O	=	4.52
CC(C)=CCC/C(=C/Cc1cc(O)ccc1OC(C)(C)[C@@H](O)CC[C@@H](C)[C@H]1CC[C@@]2(C)C3=CC[C@H]4C(C)(C)C(=O)CC[C@]4(C)C3=CC[C@]12C)C(=O)O	=	4.89
CCC(=O)CC[C@@]1(C)OC[C@]23[C@@H](O)C(=O)C4=C(C(=O)C[C@@H]([C@@]5(C)CO5)[C@]4(C)CCC(=O)O[C@@H](CC[C@@H](C)[C@H]4CC[C@@]5(C)C6=CC[C@H]7C(C)(C)C(=O)CC[C@]7(C)C6=CC[C@]45C)C(C)(C)O)[C@]2(C)CC[C@@H]31 [ganohochimate A (9), Ganohochimate A]	=	4.28
Cc1c2ccncc2c(C)c2c1[nH]c1ccccc12 [ellipticine, reference compound]	=	5.22
CC(C)=CCC/C(=C/Cc1cc(OC(C)(C)[C@@H](O)CC[C@@H](C)[C@H]2CC[C@@]3(C)C4=CC[C@H]5C(C)(C)[C@@H](O)CC[C@]5(C)C4=CC[C@]23C)ccc1O)C(=O)O	=	4.62
CC(C)=CCC/C(=C/Cc1cc(O)ccc1OC(C)(C)[C@@H](O)CC[C@@H](C)[C@H]1CC[C@@]2(C)C3=CC[C@H]4C(C)(C)[C@@H](O)CC[C@]4(C)C3=CC[C@]12C)C(=O)O	=	5.20
CC(C)=CCC/C(=C/Cc1cc(OC(C)(C)[C@@H](O)CC[C@@H](C)[C@H]2CC[C@@]3(C)C4=CC[C@H]5C(C)(C)C(=O)CC[C@]5(C)C4=CC[C@]23C)ccc1O)C(=O)O	=	4.85
CC(C)=CCC/C(=C/Cc1cc(O)ccc1O)C(=O)O	<	3.74
CC(C)=CCC/C(C)=C/CC/C(=C/Cc1cc(OC(C)(C)[C@@H](O)CC[C@@H](C)[C@H]2CC[C@@]3(C)C4=CC[C@H]5C(C)(C)[C@@H](O)CC[C@]5(C)C4=CC[C@]23C)ccc1O)C(=O)O	=	4.55
